- Test system: M14 melanoma
- test-protocol: NCI-60 one-dose screen, 48 h (100 = growth as untreated, 0 = no growth, -100 = all killed)
- experimental-conditions: 10 µM unless noted
The panel holds about 83,000 compounds, 20% with a hit somewhere; the sample as a whole holds those more often.
Consider the following molecules; for each one, report its growth.
Answers are plain numbers, in %.

For orientation, consider the following solved cases.
O=C(CSc1nnc(-c2ccc(Cl)cc2)n1-c1ccccc1)Nc1ccc(Cl)cc1 = 62.7
NC(N)=NS(=O)(=O)c1ccc(N=Nc2c(N)nn(-c3ccc([N+](=O)[O-])cc3[N+](=O)[O-])c2N)cc1 = 102
Cn1c(SCC(=O)c2ccc(F)cc2)nc2ccccc2c1=O = 95.8
C#Cc1nc(/C=C/C(=O)NO)cs1 = 70.3

Next molecule, growth to be filled in.
Task: Lab note: need growth with M14 melanoma for entry COc1ccc(-c2cc(-c3ccc(N(C)C)cc3)n3c(n2)nc2ccccc23)cc1 , please look it up.
Output: 29.1

---

- System: HT29 colon
- test-protocol: NCI-60 one-dose screen, 48 h (100 = growth as untreated, 0 = no growth, -100 = all killed)
- experimental-conditions: 10 µM unless noted
The panel holds about 83,000 compounds, 20% with a hit somewhere; the sample as a whole holds those more often.
endpoint: growth (%)
Answers are plain numbers, in %.

Cc1ccc2c(n1)C(=O)C(Cl)=C(Nc1cc(C(F)(F)F)cc(C(F)(F)F)c1)C2=O = 102
CSc1ccc(C(=NNS(=O)(=O)c2ccc(C)cc2)c2ccc(Cl)cc2)cc1 = 99.8
Cc1c(C(=O)/C=C/c2ccc(Cl)cc2)nnn1-c1ccc2oc(=O)ccc2c1 = 101

Please state growth for every compound in the list that follows.
1. C/C(=N\NC(=O)/C=C/CC(=O)O)c1nnn(-c2ccc([N+](=O)[O-])cc2)c1C
2. CCOC(=O)c1c(NC(=O)c2ccc(C(F)(F)F)cc2)sc2c(CN3CCN(C)CC3)c(O)ccc12
3. CN1CCN(Cc2ccc(NC(=O)c3cncc(C#Cc4cnc5ccc(N)nn45)c3)cc2C(F)(F)F)CC1

Output:
1: 106; 2: -52.1; 3: 5.96

Please state growth for every compound in the list that follows.
1. CN1CCN(c2ccc(Nc3nc(NCCCNS(=O)(=O)c4cccc(F)c4)c4sccc4n3)cc2)CC1
2. CCN(CC)c1ccc(/C=N/NC(=O)c2ccc(NS(C)(=O)=O)cc2)cc1
3. CCCCN1C(=O)/C(=c2\sc3n(c2=O)C2C(NN=3)N(CC)C(=O)N2CC)c2cc(C)ccc21 (centres undefined)
4. O=C1Nc2ccccc2/C1=N\c1nnc(-c2ccccc2)o1

Output:
-68.7
32.1
102
99.2

Please state growth for every compound in the list that follows.
1. CCCN1C=C/C(=C\C(=O)n2ccc3ccccc32)c2ccccc21
2. O=C(Nc1ccc(Cl)c(C(F)(F)F)c1)Nc1ccc2c(ccn2C(=O)c2cccc(F)c2)c1
3. CCOP(=O)(OCC)OC[C@]12CCC(C)(C)CC1C1=CC[C@@H]3[C@@]4(C)CCCNC(C)(C)[C@@H]4CC[C@@]3(C)[C@]1(C)CC2 (some centres undefined)
4. O=C(N/N=C\c1ccc([N+](=O)[O-])cc1)c1ccc2nc(-c3ccc(Br)cc3)[nH]c2c1
5. O=C(/C=C/Nc1ccc(S(=O)(=O)Nc2ncccn2)cc1)c1ccc(N=Cc2c(O)[nH]c3ccccc23)cc1

Output:
1. 74.7
2. 39.8
3. 42
4. -0.826
5. 106
